# SUBJECT_OF_TEST: T1, human Ang2 (construct not stated) (human, UniProt O15123 19-496, limits assumed)
# T1 construct: also called hAng2
# T1 sequence (looked up): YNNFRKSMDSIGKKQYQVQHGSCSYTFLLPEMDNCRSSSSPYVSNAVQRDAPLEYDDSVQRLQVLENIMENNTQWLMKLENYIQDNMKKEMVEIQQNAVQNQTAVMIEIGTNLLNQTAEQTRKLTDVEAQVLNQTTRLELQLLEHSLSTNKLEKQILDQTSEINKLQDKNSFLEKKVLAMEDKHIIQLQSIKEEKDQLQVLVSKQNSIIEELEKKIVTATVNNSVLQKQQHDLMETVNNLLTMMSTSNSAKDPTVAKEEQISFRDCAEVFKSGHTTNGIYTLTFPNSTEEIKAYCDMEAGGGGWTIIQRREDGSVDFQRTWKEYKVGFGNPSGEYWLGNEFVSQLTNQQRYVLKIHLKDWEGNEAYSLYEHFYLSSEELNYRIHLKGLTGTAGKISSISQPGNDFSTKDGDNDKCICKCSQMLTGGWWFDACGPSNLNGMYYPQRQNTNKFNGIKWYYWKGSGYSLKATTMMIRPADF
# MEASUREMENT_DESCRIPTION: SPR Biacore T200, antibody captured on protein A chip, Ang2 as analyte, 1:1 model
# Description: To analyze the binding affinity of the selected anti-Ang2 antibodies, affinity analysis for human Ang2 and mouse Ang2 was performed using BIACORE® T200 (GE Healthcare). […] The analysis proceeded at a flow rate of 30 μl/min, the binding and dissociation time of human Ang2 was measured as 300 seconds and 2000 seconds, respectively, and the binding and dissociation time of mouse Ang2 was analyzed as 300 seconds and 1000 seconds, respectively. […]
Label key: fulfilled means kon under 300000 M⁻¹ s⁻¹; not fulfilled means kon of 300000 M⁻¹ s⁻¹ or more.

Known results for binders:
BINDER	CATEGORY_LABEL
No. 46 anti-Ang2 antibody (IgG) (antibody, V domains shown, IgG form: VH cloned into Invivogen pfusess-hchg1, VL into Invivogen pfuse2ss-hclk; also called 3C6) VH: QVQLVESGGGLVQPGRSLRLSCAASGFTFDDCAMHWVRQAPGKGLEWVSGISGNSKNVAYADSVKGRFSISRDDAKNSLYLQMNSLRAEDTAVYYCARDPAYSQFDYWGQGTLITVSS VL: QSALTQPPSLSATPGQRVTISCSGSSSNVGGYPVNWYQQVPGAAPKLLMYTDYKRPSGVPDRFFGSKSGTSASLAISGLQSEDEADYYCATWDDNLNGYVFGTGTKVTVLG	fulfilled
No. 3 anti-Ang2 antibody (IgG) (antibody, V domains shown, IgG form: VH cloned into Invivogen pfusess-hchg1 (heavy chain constant region), VL into Invivogen pfuse2ss-hclk (light chain constant region); Expressed in Expi293F, purified on Protein A; also called 1D10) VH: QMQLVQSGGGLVQPGRSLKLSCAASGFSFDDYAMHWVRQAPGKGLEWVATIKDDGSQTYYVDSVKGRFTISRDNAKSSLFLQMNSLRAEDTAVYYCTTEGLMNGLHFDMWGQGTMVTVSS VL: LVLTQPPSVSGAPGQGVTISCTGSSSNIGAGYDVHWYQQFPGTAPKLLISGNNNRPSGLPDRFSGSKSGTSASLAITGLQAEDEADYYCQSYDSRLGVVFGGGTKLTVLG	not fulfilled
No. 41 anti-Ang2 antibody (IgG) (antibody, V domains shown, IgG form: VH cloned into Invivogen pfusess-hchg1, VL into Invivogen pfuse2ss-hclk; also called 2B2) VH: QVQLVESGGGLVQPGGSLRLSCEASGFAFGRYEMNWVRQAPGKGLEWIAYIDTGGGAKVYADSVKGRFTISRDDSKNSLYLQMNSLRAEDTAVYYCTTEGLMNGLHFDMWGQGTMITVSS VL: DIQMTQSPSTLSASVGDRVAITCRASQAISTWLAWYQQKPGKAPKLLIYTASTLESGVPSRFSGSGSGTDFTLTINSLQPDDFATYYCQQLNSYPYTFGGGTKVEIKR	not fulfilled
No. 4 anti-Ang2 antibody (IgG) (antibody, V domains shown, IgG form: VH cloned into Invivogen pfusess-hchg1, VL into Invivogen pfuse2ss-hclk; also called 2D8) VH: QVQLVESGAEVKRPGESLRISCKTSGYSFTSYWIHWVRQMPGKELEWMGSIYPGNSDTRYSPSFQGHVTISADSSSSTAYLQWSSLKASDTAMYYCTTEGLMNGLHFDMWGQGTMVTVSS VL: DIVMTQTPLSLPVTPGEPASISCRSSQSLLHSLGDNYLDWYLQKPGQSPQLLIYLGSKRAAGVPDRFSGSGSGTDFTLKISRVEAEDVGVYYCMQSLQTPPYTFGQGTKLEIKR	fulfilled

Read the next record carefully.
Q: For this binder, is kon lower than 300000 M⁻¹ s⁻¹? No. 8 anti-Ang2 antibody (IgG) (antibody, V domains shown, IgG form: VH cloned into Invivogen pfusess-hchg1, VL into Invivogen pfuse2ss-hclk; also called 3A10) VH: QVQLVESGGGLVKPGGSLRLSCAASGFTFSSYSMNWVRQAPGKGLEWVSSISASDGATYYADSVRGRFTISRDNSRSTLYLQMNSLRAEDTAVYYCAKILAGYSGPMGGMDVWGQGTTVTVSS VL: DIQMTQSPSSLSASVGDRVTITCRASRDISNYLAWYQQKPGKAPKSLIYGASNLQSGVSSQFSGSGSGTDFTLTINSLQPEDSATYYCQQYYSYPLTFGGGTKVDIKR
Result: fulfilled

The measurements presented in this section are drawn from patent US20220204603A1.
